molecular target: NGF (nerve growth factor) (Homo sapiens, UniProt P01138 P01138:122-241); assay: cell_activity; neurite; TF-1 0.048; conditions: tags: R&D Systems; chain copies: 2
Sequence (P01138 122-241, one chain of several): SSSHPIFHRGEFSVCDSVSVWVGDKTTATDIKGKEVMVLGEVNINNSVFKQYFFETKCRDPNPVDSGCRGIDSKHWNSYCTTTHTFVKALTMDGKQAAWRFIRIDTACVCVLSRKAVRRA
Metric name: IC50 (nM)

                                     binder  quantitative_result
0  GGGUCCUGGAUAAGAGTUUCCGUCUCGUAUCCTGUUACCC (ssRNA, as 82(25) except dU7,dT17,dT33) [SEQ ID NO: 164]                0.132
